test.protocol: in vivo
protocol.conditions: Crl:CD(SD), rat, iv, 24.3 nmol/kg
Ends that are not written are not given here.
measured.metric: clearance
The reply must contain the numeric value and, after it, the unit.

// field: clearance; key: AVAEIQLMHQRAKWIQDARRRAFLHKLIAEIHTAEI-OH [SP-PTH-AAK] ; value = 21.6 mL/min/kg
